molecular target: UniProt:P00746; assay: Human Factor D assay; assay type: biochemical; details: Human Factor D 80 nM, substrate Z-L-Lys-SBzl, A405; read-out: IC50 (Stars)
pIC50: −log10 of the molar value.
Catalogue of pIC50 values

Use the examples below as a reference point.
q: pIC50 lookup needed for CC(=O)c1nn2c3c(cc(-c4cnc(C)nc4)cc13)C/C=C/CCCC(=O)N(C)C[C@@]13C[C@@H](C(=O)Nc4cc(F)cc(Br)n4)N(C(=O)C2)[C@@H]1C3 , thanks.
a: > 6.00

q: pIC50 lookup needed for CC(=O)c1nn2c3c(cc(-c4cnc(C)nc4)cc13)CNCCCCCOC[C@@]13C[C@@H](C(=O)Nc4nc(C(F)(F)F)ccc4C)N(C(=O)C2)[C@@H]1C3 , thanks.
a: > 6.00

Others:
q: Return reported pIC50; argument: CC(=O)c1nn2c3c(cc(N4CCCC4)cc13)CCCCCCC(=O)NC[C@@]13C[C@@H](C(=O)Nc4nc(C(F)(F)F)ccc4C)N(C(=O)C2)[C@@H]1C3
a: > 6.00

====

molecular target: Human Factor D (Homo sapiens (Human), UniProt P00746); experiment: Human Factor D assay; assay type: biochemical; conditions: Human Factor D 80 nM, substrate Z-L-Lys-SBzl, A405; read-out: IC50 (Stars)
Sequence (P00746 26-253): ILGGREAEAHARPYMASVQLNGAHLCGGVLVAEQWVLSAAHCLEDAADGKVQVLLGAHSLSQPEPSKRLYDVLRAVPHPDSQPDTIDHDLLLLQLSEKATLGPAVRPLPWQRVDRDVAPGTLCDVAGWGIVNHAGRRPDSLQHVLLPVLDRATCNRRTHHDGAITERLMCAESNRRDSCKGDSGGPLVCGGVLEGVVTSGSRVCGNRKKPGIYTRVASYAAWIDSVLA
pIC50: −log10 of the molar value.
# reported pIC50; entries follow

q: Bench note: what pIC50 did CC(=O)c1nn2c3c(cc(N)cc13)CCCCCCC(=O)NC[C@@]13C[C@@H](C(=O)Nc4nc(C(F)(F)F)ccc4C)N(C(=O)C2)[C@@H]1C3 show?
a: > 6.00

q: State the recorded pIC50 for this entry: CC(=O)c1nn2c3c(cc(-c4cnc(C)nc4)cc13)CCCCCCCCCC[C@@H](C(=O)Nc1nc(Br)ccc1C)N(C)C(=O)C2
a: < 5.00

q: Could you tell me which pIC50 is on file for CC(=O)c1nn2c3c(cc(-c4cnc(C)nc4)cc13)CNCC/C=C/COC[C@@]13C[C@@H](C(=O)Nc4nc(C(F)(F)F)ccc4C)N(C(=O)C2)[C@@H]1C3 ?
a: > 6.00

q: What value of pIC50 has been reported for the following compound? CC(=O)c1nn2c3c(cc(-c4cnc(C)nc4)cc13)CCCCCCCNC[C@@]13C[C@@H](C(=O)Nc4nc(C(F)(F)F)ccc4C)N(C(=O)C2)[C@@H]1C3
a: > 6.00

q: Dear colleague, I am looking for the recorded pIC50 of the following compound: CC(=O)c1nn2c3c(cc(-c4nnc(C)o4)cc13)CCCCCCC(=O)NC[C@@]13C[C@@H](C(=O)Nc4nc(C(F)(F)F)ccc4C)N(C(=O)C2)[C@@H]1C3
a: > 6.00

***
q: Field request: pIC50 | item: CC(=O)c1nn2c3c(cc(CCC(C)C)cc13)CCCCCCC(=O)NC[C@@]13C[C@@H](C(=O)Nc4nc(C(F)(F)F)ccc4C)N(C(=O)C2)[C@@H]1C3
a: > 6.00
